test system: Amblyomma hebraeum; assay: Amblyomma hebraeum test (AMBYHE), nymph immersion; type: in vivo; conditions: application rate 100 ppm, nymphs, after 42 days
endpoint-label: activity (mortality in %)

In [3]: df
Out[3]:
                                   compound  unit_label  meas_value
0  CN(C)C(=O)NCc1ccc(N2CCC(c3cc(Cl)cc(Cl)c3)(C(F)(F)F)C2)cc1Cl (stereo not drawn) [1-118]           %          90
1  CSCCC(=O)NCc1ccc(N2CCC(c3cc(Cl)cc(Cl)c3)(C(F)(F)F)C2)cc1C(F)(F)F (stereo not drawn) [1-509]           %          90
2  CCC(=O)NCc1ccc(N2CCC(c3cc(C(F)(F)F)cc(C(F)(F)F)c3)(C(F)(F)F)C2)cc1Cl (stereo not drawn) [1-307]           %          80
3  O=C(NCc1ccc(N2CCC(c3cc(C(F)(F)F)cc(C(F)(F)F)c3)(C(F)(F)F)C2)cc1Br)C1CC1 (stereo not drawn) [1-313]           %          95
4  O=C(CCCl)NCc1ccc(N2CCC(c3cc(C(F)(F)F)cc(C(F)(F)F)c3)(C(F)(F)F)C2)cc1C(F)(F)F (stereo not drawn) [1-297]           %          90
5  O=C(CC(F)(F)F)NCc1ccc(N2CCC(c3cc(Cl)c(Cl)c(Cl)c3)(C(F)(F)F)C2)cc1Cl (stereo not drawn) [1-340]           %          80
